Each recorded value in this set is attributed to paper PMC2879509.

Target: T1, MSL2-ΔRING (Drosophila melanogaster, UniProt P50534 1-40+86-773, internal_change)
T1 sequence: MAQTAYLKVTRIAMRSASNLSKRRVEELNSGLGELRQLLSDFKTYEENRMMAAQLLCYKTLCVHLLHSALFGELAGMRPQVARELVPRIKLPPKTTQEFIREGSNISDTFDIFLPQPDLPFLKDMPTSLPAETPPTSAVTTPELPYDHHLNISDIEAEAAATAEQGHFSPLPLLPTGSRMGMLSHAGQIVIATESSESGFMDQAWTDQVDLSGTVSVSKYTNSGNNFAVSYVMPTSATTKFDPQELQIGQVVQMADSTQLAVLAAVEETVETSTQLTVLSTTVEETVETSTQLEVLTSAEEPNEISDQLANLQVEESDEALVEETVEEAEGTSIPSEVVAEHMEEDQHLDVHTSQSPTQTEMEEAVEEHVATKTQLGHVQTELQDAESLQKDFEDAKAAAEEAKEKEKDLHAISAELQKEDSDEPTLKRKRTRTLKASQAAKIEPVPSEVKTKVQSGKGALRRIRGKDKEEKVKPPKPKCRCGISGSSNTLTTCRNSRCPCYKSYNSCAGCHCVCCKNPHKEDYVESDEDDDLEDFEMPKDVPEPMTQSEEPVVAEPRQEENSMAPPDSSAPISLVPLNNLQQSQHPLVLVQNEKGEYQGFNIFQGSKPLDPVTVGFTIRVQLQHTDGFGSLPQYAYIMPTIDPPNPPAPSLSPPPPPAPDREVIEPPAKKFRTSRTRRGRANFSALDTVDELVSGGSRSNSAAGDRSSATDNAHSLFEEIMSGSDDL
Assay: EMSA
measurement label: Kd (nM)
One number for each entry, in nM.

Briefly, Kd measured for DBF12-L15 dsRNA 40 bp (dsRNA) RNA 1: UGCGGCCAUCUCUUUCGUUUUGAUGUUUCUACGCCAUGUG RNA 2: CACAUGGCGUAGAAACAUCAAAACGAAAGAGAUGGCCGCA : 23
